Values from patent US8476023B2

Test system: UGT1A4 24Thr/48Leu
Experiment: Glucuronidation assay, UGT1A4 24Thr/48Leu-overexpressing HEK293 cell homogenate
Assay type: in vitro ADME, human
Conditions: human, pH 7.4
readoutName: Km at 60 min (µM)

| molecule | readoutName | resultValue |
| --- | --- | --- |
| C=C1C[C@@H]2[C@H](CC[C@]3(C)C(O)CC[C@@H]23)[C@@]2(C)C=CC(=O)C=C12 (stereo partly shown) [17-dihydroexemestane] | Km at 60 min | 28 |

====

Test: Kinetic analysis of glucuronidation by individual HLM from UGT2B17 (*1/*1) subjects
Assay type: in vitro ADME, human
Conditions: human, liver microsomes of UGT2B17 (*1/*1) subjects, pH 7.4, mean of five UGT2B17 (*1/*1) HLM; read-out: KM, mean ± S.D.

| compound | Km at 60 min, µM |
| --- | --- |
| C=C1C[C@@H]2[C@H](CC[C@]3(C)C(O)CC[C@@H]23)[C@@]2(C)C=CC(=O)C=C12 (stereo partly shown) [17-dihydroexemestane] | 7.3 |
